The reported measurements were obtained from patent US20200062767A1.

# collection of Ki values tested on Human norepinephrine transporter (NET) (Homo sapiens, UniProt P23975)
# Sequence (P23975 whole entry): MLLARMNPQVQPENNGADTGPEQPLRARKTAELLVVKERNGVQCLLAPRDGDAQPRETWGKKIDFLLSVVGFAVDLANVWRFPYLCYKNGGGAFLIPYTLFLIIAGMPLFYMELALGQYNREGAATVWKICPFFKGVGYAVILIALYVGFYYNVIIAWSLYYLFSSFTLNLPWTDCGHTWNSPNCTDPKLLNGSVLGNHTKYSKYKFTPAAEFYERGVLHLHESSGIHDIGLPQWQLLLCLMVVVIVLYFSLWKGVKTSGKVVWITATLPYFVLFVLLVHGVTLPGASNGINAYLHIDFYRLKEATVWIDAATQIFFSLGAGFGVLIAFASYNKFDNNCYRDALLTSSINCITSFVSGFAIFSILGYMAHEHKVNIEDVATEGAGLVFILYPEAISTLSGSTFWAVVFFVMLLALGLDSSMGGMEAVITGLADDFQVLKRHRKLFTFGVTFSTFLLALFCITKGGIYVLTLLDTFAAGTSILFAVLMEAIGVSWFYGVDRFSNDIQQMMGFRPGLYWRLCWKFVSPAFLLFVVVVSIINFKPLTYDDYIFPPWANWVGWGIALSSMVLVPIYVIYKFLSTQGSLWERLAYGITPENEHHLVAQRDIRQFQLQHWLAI

smiles: CCOc1ccc(-n2nc3c(N4CC[C@H](N(C)Cc5ccccc5)C4)nnc(C)c3c2C)c(F)c1
Ki: 500 to 1000 nM
//
smiles: CCOc1ccc(-n2nc3c(N4CC[C@H](NCc5ccccc5O)C4)nnc(C)c3c2C)c(F)c1
Ki: 100 to 500 nM
//
smiles: CCOc1ccc(-n2nc3c(N4CC[C@@H](NCc5cccc(O)c5)C4)nnc(C)c3c2C)c(F)c1
Ki: 100 to 500 nM
//
smiles: CCOc1ccc(-n2nc3c(N4CC[C@H](NCc5cccnc5)C4)nnc(C)c3c2C)c(F)c1
Ki: 500 to 1000 nM
//
smiles: CCOc1ccc(-n2nc3c(N4CC[C@H](NCCc5ccc(F)cc5)C4)nnc(C)c3c2C)c(F)c1
Ki: ≥ 1000 nM
//
smiles: CCOc1ccc(-n2nc3c(N4CC[C@H](NCc5cncc(F)c5)C4)nnc(C)c3c2C)c(F)c1
Ki: ≥ 1000 nM
//
smiles: CCOc1ccc(-n2nc3c(N4CC[C@H](NCc5cccc(O)c5)C4)nnc(C)c3c2C)c(F)c1
Ki: 100 to 500 nM
//
smiles: CCOc1ccc(-n2nc3c(N4CC[C@H](N(C)Cc5cccc(O)c5)C4)nnc(C)c3c2C)c(F)c1
Ki: ≥ 1000 nM
//
smiles: CCOc1ccc(-n2nc3c(N4CCC[C@H](N(C)C)C4)nnc(C)c3c2C)c(F)c1
Ki: ≥ 1000 nM
//
smiles: CCOc1ccc(-n2nc3c(N4CC[C@H](NC(=O)Cc5cccnc5)C4)nnc(C)c3c2C)c(F)c1
Ki: ≥ 1000 nM
//
smiles: CCOc1ccc(-n2nc3c(N4CC[C@H](NCc5ccccn5)C4)nnc(C)c3c2C)c(F)c1
Ki: ≥ 1000 nM
//
smiles: CCOc1ccc(-n2nc3c(N4CC[C@H](NCc5ccccc5)C4)nnc(C)c3c2C)c(F)c1
Ki: 100 to 500 nM
//
smiles: CCOc1ccc(-n2nc3c(N4CC[C@H](NCCc5ccccc5)C4)nnc(C)c3c2C)c(F)c1
Ki: 500 to 1000 nM

* * *

Ki for assorted molecules
Biological target: Human α2δ−1 subunit of Cav2.2 calcium channel (Homo sapiens)
Sequence (P54289 25-1103): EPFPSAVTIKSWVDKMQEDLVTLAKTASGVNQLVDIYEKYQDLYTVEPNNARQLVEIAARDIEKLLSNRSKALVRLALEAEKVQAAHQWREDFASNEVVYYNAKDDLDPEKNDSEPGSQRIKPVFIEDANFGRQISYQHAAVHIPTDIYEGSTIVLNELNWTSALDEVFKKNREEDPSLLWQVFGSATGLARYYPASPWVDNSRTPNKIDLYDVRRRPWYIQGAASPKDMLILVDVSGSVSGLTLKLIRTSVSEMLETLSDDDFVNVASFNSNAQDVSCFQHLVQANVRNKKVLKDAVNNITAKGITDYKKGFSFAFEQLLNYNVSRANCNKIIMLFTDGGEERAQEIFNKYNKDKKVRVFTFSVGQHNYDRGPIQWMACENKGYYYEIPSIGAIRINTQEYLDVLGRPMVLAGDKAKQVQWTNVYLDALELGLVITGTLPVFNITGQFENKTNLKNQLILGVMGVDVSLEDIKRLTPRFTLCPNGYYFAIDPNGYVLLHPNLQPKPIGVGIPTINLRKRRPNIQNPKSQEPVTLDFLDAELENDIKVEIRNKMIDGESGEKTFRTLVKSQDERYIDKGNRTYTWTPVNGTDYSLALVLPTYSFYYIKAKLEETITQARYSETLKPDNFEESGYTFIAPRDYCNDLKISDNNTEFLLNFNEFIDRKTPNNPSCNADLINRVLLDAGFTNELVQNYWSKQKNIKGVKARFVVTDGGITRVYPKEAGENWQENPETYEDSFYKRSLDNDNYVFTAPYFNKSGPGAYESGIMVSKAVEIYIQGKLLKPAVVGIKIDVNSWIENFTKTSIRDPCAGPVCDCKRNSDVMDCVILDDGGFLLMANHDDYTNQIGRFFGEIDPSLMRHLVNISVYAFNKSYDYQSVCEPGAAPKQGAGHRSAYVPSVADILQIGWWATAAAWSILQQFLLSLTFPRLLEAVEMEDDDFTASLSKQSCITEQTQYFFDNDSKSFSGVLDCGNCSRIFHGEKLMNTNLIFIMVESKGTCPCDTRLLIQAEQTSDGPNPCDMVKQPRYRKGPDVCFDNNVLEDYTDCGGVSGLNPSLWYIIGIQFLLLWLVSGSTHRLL
Experiment: Human α2δ−1 subunit of Cav2.2 calcium channel assay
Conditions: expressed as Ki; [3H]-Gabapentin, human α2δ−1 enriched membranes; read-out: Binding α2δ-1
Description: Human α2δ−1 Subunit of Cav2.2 Calcium Channel Assay Human α2δ−1 enriched membranes (2.5 μg) were incubated with 15 nM of radiolabeled [3H]-Gabapentin in assay buffer containing Hepes-KOH 10 mM, pH 7.4. NSB (non specific binding) was measured by adding 10 μM pregabalin. The binding of the test compound was measured at five different concentrations. […] Filter plates were dried at 60° C. for 1 hour and 30 μL of scintillation cocktail were added to each well before radioactivity reading. […]

smiles: CCOc1ccc(-n2nc3c(N4CCC[C@H](N(C)C)C4)nnc(C)c3c2C)c(F)c1
Ki: 500 to 5000 nM
//
smiles: CCOc1ccc(-n2nc3c(N4CC[C@H](NCc5cncc(F)c5)C4)nnc(C)c3c2C)c(F)c1
Ki: ≥ 5000 nM
//
smiles: CCOc1ccc(-n2nc3c(N4CC[C@H](NCCc5ccc(F)cc5)C4)nnc(C)c3c2C)c(F)c1
Ki: < 500 nM
//
smiles: CCOc1ccc(-n2nc3c(N4CC[C@H](NCc5cccc(OC)c5)C4)nnc(C)c3c2C)c(F)c1
Ki: < 500 nM
